Test system: Trypanosoma cruzi
Assay: Trypanocidal activity against Trypanosoma cruzi strain CL Brener epimastogoes after 64 hrs by Alamar blue assay
Format: functional
Task for the reader: assign each of the following molecules its reported EC50.
Answers are plain numbers, in µM.

Consider the reported EC50 for these molecules:
OCCCCCCOCCCC[C@H]1CCC[C@@H](Cn2cc([C@@H]3CCC[C@H](CCCCOCc4ccccc4)O3)nn2)O1	27.3
O=C(NCCCCCCOCCCC[C@H]1CCC[C@@H](Cn2cc([C@@H]3CCC[C@H](CCCCOCc4ccccc4)O3)nn2)O1)c1cocn1	18.3
Cc1nc(C(=O)NCCCCCCOCCCC[C@H]2CCC[C@@H](Cn3cc([C@@H]4CCC[C@H](CCCCOCc5ccccc5)O4)nn3)O2)co1	12.1
COCCCCCCNC(=O)c1ccc([N+](=O)[O-])o1	8

# EC50 of `O=C(NCCCCCCOCCCC[C@H]1CCC[C@@H](Cn2cc([C@@H]3CCC[C@H](CCCCOCc4ccccc4)O3)nn2)O1)c1ccco1` = 8

* * *

Task for the reader: assign each of the following compounds its reported pEC50.
Tested on: Trypanosoma brucei
Experiment: Trypanocidal activity against Trypanosoma brucei 427 procyclic forms after 64 hrs by Alamar blue assay
Assay type: functional
Settings: Trypanosoma brucei, 427, 64 h
Give bare numbers, as −log10 of the molar value.

O=C(NCCCCCCOCCCC[C@H]1CCC[C@@H](Cn2cc([C@@H]3CCC[C@H](CCCCOCc4ccccc4)O3)nn2)O1)c1cccs1	5.32
O=C(NCCCCCCOCCCC[C@H]1CCC[C@@H](Cn2cc([C@@H]3CCC[C@H](CCCCOCc4ccccc4)O3)nn2)O1)c1ccco1	5.30
Cc1ccoc1C(=O)NCCCCCCOCCCC[C@H]1CCC[C@@H](Cn2cc([C@@H]3CCC[C@H](CCCCOCc4ccccc4)O3)nn2)O1	5.60
Cn1nccc1C(=O)NCCCCCCOCCCC[C@H]1CCC[C@@H](Cn2cc([C@@H]3CCC[C@H](CCCCOCc4ccccc4)O3)nn2)O1	5.26
OCCCCCCOCCCC[C@H]1CCC[C@@H](Cn2cc([C@@H]3CCC[C@H](CCCCOCc4ccccc4)O3)nn2)O1	5.42
O=C(NCCCCCCOCCCC[C@H]1CCC[C@@H](Cn2cc([C@@H]3CCC[C@H](CCCCOCc4ccccc4)O3)nn2)O1)c1ccc(Cl)o1	5.42

// moving on: another record for pEC50
# pEC50 of `Cc1cc(C(=O)NCCCCCCOCCCC[C@H]2CCC[C@@H](Cn3cc([C@@H]4CCC[C@H](CCCCOCc5ccccc5)O4)nn3)O2)oc1C` = 5.41

* * *

Tested on: Trypanosoma cruzi
Assay: Trypanocidal activity against Trypanosoma cruzi strain CL Brener epimastogoes after 64 hrs by Alamar blue assay
Assay type: functional
Task for the reader: assign each of the following compounds its reported EC50.
Answers are plain numbers, in µM.

O=C(NCCCCCCOCCCC[C@H]1CCC[C@@H](Cn2cc([C@@H]3CCC[C@H](CCCCOCc4ccccc4)O3)nn2)O1)c1cscn1	12.6
Cc1ccc(C(=O)NCCCCCCOCCCC[C@H]2CCC[C@@H](Cn3cc([C@@H]4CCC[C@H](CCCCOCc5ccccc5)O4)nn3)O2)o1	187
OCCCCCCOCCCC[C@H]1CCC[C@@H](Cn2cc([C@@H]3CCC[C@H](CCCCO)O3)nn2)O1	230
Cc1cc(C(=O)NCCCCCCOCCCC[C@H]2CCC[C@@H](Cn3cc([C@@H]4CCC[C@H](CCCCOCc5ccccc5)O4)nn3)O2)oc1C	135
NCCCCCCOCCCC[C@H]1CCC[C@@H](Cn2cc([C@@H]3CCC[C@H](CCCCOCc4ccccc4)O3)nn2)O1	16.7

Give EC50 for each listed item.
1. O=C(NCCCCCCOCCCC[C@H]1CCC[C@@H](Cn2cc([C@@H]3CCC[C@H](CCCCOCc4ccccc4)O3)nn2)O1)c1ccc([N+](=O)[O-])o1
2. Cn1nccc1C(=O)NCCCCCCOCCCC[C@H]1CCC[C@@H](Cn2cc([C@@H]3CCC[C@H](CCCCOCc4ccccc4)O3)nn2)O1

result:
3.1
81.8
